# System: U2OS
# test method notes: Incucyte cell viability with U2OS; also: unitless GR value; below 1 slowed growth and below 0 cell loss
# Assay type: toxicity, cell-based
# reported conditions: human, 6 h, 10 µM, compound concentration 10 uM, replicate number 1
metric: Growth Rate

                                    molecule    val
 0  CN(C)[C@H]1CCN(c2cc(C(F)(F)F)c(C#N)c(Nc3cccc(CCC(=O)O)c3)n2)C1.O=C(O)C(F)(F)F   0.63
 1  COc1ccc(OC)c(-c2ccc(NC(=O)c3ccncc3F)cc2)c1   0.57
 2  CC(=O)c1ccc2c(c1)/C(=C(/NC1CCN(C)CC1)c1ccc3c(c1)OCO3)C(=O)N2   0.57
 3  CCOC(=O)C1Cc2ccccc2CN1C(=O)c1ccc(SC)s1 (centres undefined)   0.96
 4  COc1cc(F)ccc1-c1ncnc(Nc2cccc(C[S@](C)(=N)=O)c2)n1   0.72
 5          COc1cc2ncnc(Nc3cccc(O)c3)c2cc1OC   0.98
 6  COP(=O)(CCC(N)C(=O)O)Oc1cccc(CC(=O)O)c1 (centres undefined)    0.8
 7  NC(=O)C1CCCc2c1[nH]c1ccc(Cl)cc21 (centres undefined)    0.7
 8              CCC(=N\O)/C(C)=C/c1ccc(F)cc1   0.53
 9  CC(=O)c1c(C)c2cnc(Nc3ccn(C)n3)nc2n(C2CCCC2)c1=O   0.67
10  COc1cc(C(C)C)c(Oc2cnc(NC(CO)CO)nc2N)cc1I   0.05
11  Cc1nnc2n1-c1sc(CCC(=O)N3CCOCC3)cc1C(c1ccccc1Cl)=NC2   0.58
12  CCN(C(=O)c1cc(F)ccc1Oc1cncnc1N1CC2(CCN(C[C@H]3CC[C@H](NS(=O)(=O)CC)CC3)CC2)C1)C(C)C   0.62
13  Cc1nc(Nc2cnn(C3CCNCC3)c2)nc2c1N(C)C(=O)c1cc3ccccc3cc1N2C   0.19
14   COc1cc2nc(C)nc(NC3(c4ccccc4)CC3)c2cc1OC   0.52
15         CN[C@@H](C)C/C=C/c1cncc(OC(C)C)c1   0.65
16  Cc1c(-c2cc(-c3ccccc3Cl)no2)cnn1C1CCNCC1.Cl   0.45
17  O=C(CNCc1cc2ccccc2[nH]1)N[C@H]1CC[C@@H](c2nc3ccccc3[nH]2)CC1   0.65
18  CCCCC[C@@](C)(O)/C=C/[C@H]1C(=O)CC(O)C1C/C=C\CCCC(=O)O (some centres undefined)   0.49
19  CC[C@@]1(c2ccccc2)NC(=O)N(Cc2ccccc2)C1=O   0.55
20  Cn1cnc(Cn2ccc3ccc(CNCc4[nH]c5ccccc5c4[C@@H]4NC(=O)c5ccc(O)cc54)cc32)c1   0.54
21  O=C(NCc1cccnc1OCC(F)(F)F)c1cncc(-c2ccc(Cl)cc2)c1   0.44
22  O=C(Cc1ccccc1)Nc1nnc(N2CC[C@@H]3[C@H]2CN3c2cccnn2)s1   0.79
23  COc1cc2ncnc(N[C@H](C)c3ccccc3)c2cc1OC1CCN(S(C)(=O)=O)CC1.Cl   0.77
24  COc1cccc(-c2c(C)c(Cc3c(F)cccc3C(F)(F)F)c3n(c2=O)[C@@H]([C@@H](N)c2ccccc2)CS3)c1F   0.48
25    Nc1ncnc2c1c(COc1cccc(Cl)c1)nn2C1CCOCC1   0.51
26  CN1CCC(F)(Cn2cnc(-c3ccc(F)cn3)c2-c2ccnc3[nH]ccc23)CC1   0.99
27  N[C@@H](CC(=O)O)Cn1nnc(-c2ccc(Oc3ncc(Cl)cc3F)cc2)n1   0.62
28  OC(c1ccc(-c2ccc(CN3CCN(Cc4ccncc4)CC3)cc2)c(F)c1)(C(F)(F)F)C(F)(F)F   0.85
29  COCc1c(-c2cc3cc(C)cc(OC)c3s2)c2c(N)ncnn2c1CN[C@@H]1CCNC1=O   0.62
30  COc1cc(-c2cn(C)c(=O)c3cnccc23)cc(OC)c1CN(C)C   0.87
31  N[C@@H]1CCCC[C@H]1Oc1ccc2ncc(-c3cc4ccccc4o3)n2n1  -0.96
32  COc1c(OCCCN2CCOCC2)ccc2c1N=C(NC(=O)c1cnc(N)nc1)N1CCN=C21   0.74
33      Cn1nc(-c2ccc(C(N)=O)cc2)c2ccccc2c1=O   0.58
34  O=C(NCc1ccc(F)cc1)C1CCN(S(=O)(=O)c2cc(Cl)cc(Cl)c2)CC1   0.81
35             O=C(O)/C=C/c1ccc(Cn2ccnc2)cc1   0.91
36  C=CC(=O)Nc1cccc(C)c1Nc1ncc2cc(-c3c(Cl)c(OC)cc(OC)c3Cl)ccc2n1   0.45
37  CN1CCN(c2ccc(C(=O)Nc3n[nH]c4ccc(Cc5cc(F)cc(F)c5)cc34)c(NC3CCOCC3)c2)CC1  -0.92
38  CCOC(=O)c1ncn2c1[C@@H]1CCCN1C(=O)c1cc(OC)ccc1-2    0.4
